# target-system: Histone deacetylase 4 (Homo sapiens, UniProt P56524)
# Sequence (P56524 whole entry): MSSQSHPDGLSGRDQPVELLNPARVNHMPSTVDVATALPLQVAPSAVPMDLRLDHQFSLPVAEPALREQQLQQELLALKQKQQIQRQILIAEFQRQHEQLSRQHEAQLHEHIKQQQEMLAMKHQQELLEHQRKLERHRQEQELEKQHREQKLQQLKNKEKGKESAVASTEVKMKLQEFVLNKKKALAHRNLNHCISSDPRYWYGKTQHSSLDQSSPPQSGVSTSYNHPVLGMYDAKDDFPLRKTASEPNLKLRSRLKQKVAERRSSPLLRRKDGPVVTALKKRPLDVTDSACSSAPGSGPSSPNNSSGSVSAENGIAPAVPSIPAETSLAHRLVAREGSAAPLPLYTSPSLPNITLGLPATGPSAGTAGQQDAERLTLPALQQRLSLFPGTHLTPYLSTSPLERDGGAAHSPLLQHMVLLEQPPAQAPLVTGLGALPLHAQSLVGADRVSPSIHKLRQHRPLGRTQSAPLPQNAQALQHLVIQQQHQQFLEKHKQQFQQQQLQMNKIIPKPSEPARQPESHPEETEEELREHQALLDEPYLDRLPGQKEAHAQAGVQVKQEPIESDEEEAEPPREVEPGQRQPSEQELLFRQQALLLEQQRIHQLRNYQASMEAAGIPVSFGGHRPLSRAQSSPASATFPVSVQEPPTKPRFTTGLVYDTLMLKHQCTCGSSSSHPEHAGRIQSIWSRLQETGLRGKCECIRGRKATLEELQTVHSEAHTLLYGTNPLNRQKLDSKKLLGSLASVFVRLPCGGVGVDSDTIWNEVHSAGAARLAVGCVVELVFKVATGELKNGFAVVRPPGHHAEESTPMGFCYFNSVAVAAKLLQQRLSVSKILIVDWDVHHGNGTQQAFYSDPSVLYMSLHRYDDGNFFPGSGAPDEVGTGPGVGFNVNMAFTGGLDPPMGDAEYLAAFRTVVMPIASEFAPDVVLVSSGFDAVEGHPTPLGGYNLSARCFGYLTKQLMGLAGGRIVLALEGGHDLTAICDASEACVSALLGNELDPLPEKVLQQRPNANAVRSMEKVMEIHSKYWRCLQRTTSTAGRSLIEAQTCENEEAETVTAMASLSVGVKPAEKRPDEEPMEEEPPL
# procedure-text: Inhibition of recombinant human HDAC4 using acetylated luminogenic substrate incubated for 10 mins by ultra-glo recombinant firefly luciferase based luminescence assay
parameter-measured: IC50

input: Item CCOc1ccc(-c2nc(C(=O)NCc3ccc(C(=O)NO)cc3)c3[nH]c(=O)n(-c4cccnc4OC)c3n2)cn1 has what recorded IC50?
output: > 1000 nM

###

# target-system: Histone deacetylase 2 (Homo sapiens, UniProt Q92769)
# Sequence (Q92769 whole entry): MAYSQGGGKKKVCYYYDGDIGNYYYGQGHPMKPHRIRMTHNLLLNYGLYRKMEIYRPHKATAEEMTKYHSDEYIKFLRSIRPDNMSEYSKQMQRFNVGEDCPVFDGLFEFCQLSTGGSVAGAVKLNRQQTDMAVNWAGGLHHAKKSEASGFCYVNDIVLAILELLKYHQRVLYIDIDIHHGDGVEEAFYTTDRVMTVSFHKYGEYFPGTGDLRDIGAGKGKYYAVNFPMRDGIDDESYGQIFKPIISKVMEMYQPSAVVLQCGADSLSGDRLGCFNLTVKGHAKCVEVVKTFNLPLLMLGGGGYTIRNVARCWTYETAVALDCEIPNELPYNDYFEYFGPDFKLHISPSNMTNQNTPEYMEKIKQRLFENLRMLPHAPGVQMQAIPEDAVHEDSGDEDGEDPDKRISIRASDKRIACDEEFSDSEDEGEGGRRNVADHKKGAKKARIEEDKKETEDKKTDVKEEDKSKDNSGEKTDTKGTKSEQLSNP
# procedure-text: Inhibition of recombinant human HDAC2 using acetylated luminogenic substrate incubated for 10 mins by ultra-glo recombinant firefly luciferase based luminescence assay
parameter-measured: IC50 (nM)
Please give a number only; it is taken to be in nM.

input: Item CCOc1ccc(-c2nc(C(=O)NCc3ccc(C(=O)NO)cc3)c3[nH]c(=O)n(-c4cccnc4OC)c3n2)cn1 has what recorded IC50?
output: 11.5

###

# target-system: Histone deacetylase 7 (Homo sapiens, UniProt Q8WUI4)
# Sequence (Q8WUI4 whole entry): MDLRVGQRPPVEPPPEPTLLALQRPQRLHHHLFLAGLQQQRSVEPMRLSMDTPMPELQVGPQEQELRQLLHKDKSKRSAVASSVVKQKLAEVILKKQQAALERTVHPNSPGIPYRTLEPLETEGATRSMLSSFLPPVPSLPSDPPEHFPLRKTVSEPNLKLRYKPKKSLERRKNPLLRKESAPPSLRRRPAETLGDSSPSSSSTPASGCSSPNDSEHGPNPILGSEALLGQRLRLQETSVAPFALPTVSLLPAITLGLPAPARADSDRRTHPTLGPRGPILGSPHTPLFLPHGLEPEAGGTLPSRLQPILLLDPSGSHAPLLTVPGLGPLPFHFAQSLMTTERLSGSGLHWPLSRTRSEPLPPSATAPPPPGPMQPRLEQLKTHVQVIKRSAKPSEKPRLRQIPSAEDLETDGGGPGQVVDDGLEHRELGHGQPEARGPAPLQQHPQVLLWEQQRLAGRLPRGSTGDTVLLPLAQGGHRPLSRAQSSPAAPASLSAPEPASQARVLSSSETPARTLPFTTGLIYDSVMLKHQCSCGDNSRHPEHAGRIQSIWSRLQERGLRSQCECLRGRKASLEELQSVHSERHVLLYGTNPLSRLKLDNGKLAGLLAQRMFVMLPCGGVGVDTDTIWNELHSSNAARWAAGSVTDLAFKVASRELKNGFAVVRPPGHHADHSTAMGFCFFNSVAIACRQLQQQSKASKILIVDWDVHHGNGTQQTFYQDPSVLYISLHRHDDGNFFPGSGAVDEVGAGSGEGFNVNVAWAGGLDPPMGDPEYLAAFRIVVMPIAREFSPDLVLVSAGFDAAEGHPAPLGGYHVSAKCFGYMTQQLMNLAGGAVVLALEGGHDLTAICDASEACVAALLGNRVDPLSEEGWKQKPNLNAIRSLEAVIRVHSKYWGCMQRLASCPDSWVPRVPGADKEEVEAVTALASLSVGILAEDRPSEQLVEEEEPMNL
# procedure-text: Inhibition of recombinant human HDAC7 using acetylated luminogenic substrate incubated for 10 mins by ultra-glo recombinant firefly luciferase based luminescence assay
pIC50: −log10 of the molar value.
parameter-measured: pIC50

input: Item CCOc1ccc(-c2nc(C(=O)NCc3ccc(C(=O)NO)cc3)c3[nH]c(=O)n(-c4cccnc4OC)c3n2)cn1 has what recorded pIC50?
output: < 6.00

###

# target-system: Histone deacetylase 5 (Homo sapiens, UniProt Q9UQL6)
# Sequence (Q9UQL6 whole entry): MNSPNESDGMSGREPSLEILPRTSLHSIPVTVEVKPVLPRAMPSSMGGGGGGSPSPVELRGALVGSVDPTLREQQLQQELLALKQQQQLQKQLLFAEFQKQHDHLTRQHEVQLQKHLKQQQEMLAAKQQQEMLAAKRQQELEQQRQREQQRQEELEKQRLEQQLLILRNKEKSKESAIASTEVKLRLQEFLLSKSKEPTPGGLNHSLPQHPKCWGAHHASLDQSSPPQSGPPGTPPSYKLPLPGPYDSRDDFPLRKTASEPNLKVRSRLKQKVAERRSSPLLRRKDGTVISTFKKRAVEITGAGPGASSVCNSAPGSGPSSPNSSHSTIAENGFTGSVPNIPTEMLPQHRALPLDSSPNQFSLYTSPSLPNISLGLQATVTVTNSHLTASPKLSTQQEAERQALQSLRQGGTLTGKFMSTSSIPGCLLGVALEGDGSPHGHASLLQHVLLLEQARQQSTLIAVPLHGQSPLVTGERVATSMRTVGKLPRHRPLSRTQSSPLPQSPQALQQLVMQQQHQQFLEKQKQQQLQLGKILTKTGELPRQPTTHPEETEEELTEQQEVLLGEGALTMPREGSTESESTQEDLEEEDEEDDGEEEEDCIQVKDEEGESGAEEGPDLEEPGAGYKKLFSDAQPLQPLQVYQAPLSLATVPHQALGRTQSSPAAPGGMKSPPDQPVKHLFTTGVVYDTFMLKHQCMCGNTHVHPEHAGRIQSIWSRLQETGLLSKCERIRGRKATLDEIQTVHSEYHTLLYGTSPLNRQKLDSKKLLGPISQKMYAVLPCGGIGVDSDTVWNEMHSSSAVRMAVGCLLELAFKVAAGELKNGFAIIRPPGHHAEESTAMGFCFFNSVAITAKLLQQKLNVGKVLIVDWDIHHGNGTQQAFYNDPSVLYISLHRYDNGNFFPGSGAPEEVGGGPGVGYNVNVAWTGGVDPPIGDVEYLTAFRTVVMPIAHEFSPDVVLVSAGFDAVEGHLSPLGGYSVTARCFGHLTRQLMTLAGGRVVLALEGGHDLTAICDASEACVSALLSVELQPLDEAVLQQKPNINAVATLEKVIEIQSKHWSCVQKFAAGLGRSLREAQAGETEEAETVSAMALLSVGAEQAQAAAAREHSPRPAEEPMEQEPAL
# procedure-text: Inhibition of recombinant human HDAC5 using acetylated luminogenic substrate incubated for 10 mins by ultra-glo recombinant firefly luciferase based luminescence assay
parameter-measured: IC50

input: Please tell me: IC50 of CCOc1ccc(-c2nc(C(=O)NCc3ccc(C(=O)NO)cc3)c3[nH]c(=O)n(-c4cccnc4OC)c3n2)cn1 , system Histone deacetylase 5 (Homo sapiens, UniProt Q9UQL6)?
output: > 1000 nM

###

# procedure-text: Antiproliferative activity against human CL25 cells harboring mutated EGFR assessed as inhibition of cell growth by SRB assay
# Format: functional, cell-based
parameter-measured: pIC50
pIC50 here: minus log base 10 of the concentration, concentration in moles per litre.

input: Item CCOc1ccc(-c2nc(C(=O)NCCCCCCC(=O)NO)c3[nH]c(=O)n(-c4ccccc4OC)c3n2)cc1 has what recorded pIC50?
output: 6.49

###

# target-system: Polyamine deacetylase HDAC10 (Homo sapiens)
# Sequence (Q969S8 whole entry): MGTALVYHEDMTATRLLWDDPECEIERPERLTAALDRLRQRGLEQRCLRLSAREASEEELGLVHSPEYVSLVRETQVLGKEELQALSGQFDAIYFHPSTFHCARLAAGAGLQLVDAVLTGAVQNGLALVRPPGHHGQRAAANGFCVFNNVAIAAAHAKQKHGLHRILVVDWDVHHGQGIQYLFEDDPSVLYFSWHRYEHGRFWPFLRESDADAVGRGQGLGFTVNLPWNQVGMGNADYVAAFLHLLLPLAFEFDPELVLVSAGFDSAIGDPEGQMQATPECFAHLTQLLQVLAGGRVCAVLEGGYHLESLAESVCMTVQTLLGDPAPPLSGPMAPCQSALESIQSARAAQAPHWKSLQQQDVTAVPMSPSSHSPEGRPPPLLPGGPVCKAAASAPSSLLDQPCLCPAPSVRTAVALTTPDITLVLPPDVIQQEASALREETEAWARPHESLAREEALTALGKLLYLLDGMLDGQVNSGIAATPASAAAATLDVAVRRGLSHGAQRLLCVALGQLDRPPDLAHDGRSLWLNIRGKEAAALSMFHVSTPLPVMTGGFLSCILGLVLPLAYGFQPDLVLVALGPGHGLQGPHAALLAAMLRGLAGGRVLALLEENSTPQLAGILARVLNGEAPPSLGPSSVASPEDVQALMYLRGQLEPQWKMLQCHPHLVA
# procedure-text: Inhibition of recombinant human HDAC10 using acetylated luminogenic substrate incubated for 10 mins by ultra-glo recombinant firefly luciferase based luminescence assay
parameter-measured: IC50 (nM)
Please give a number only; it is taken to be in nM.

input: Please tell me: IC50 of CCOc1ccc(-c2nc(C(=O)NCc3ccc(C(=O)NO)cc3)c3[nH]c(=O)n(-c4cccnc4OC)c3n2)cn1 , system Polyamine deacetylase HDAC10 (Homo sapiens)?
output: 18.9

###

# target-system: Histone deacetylase
# procedure-text: Inhibition of HDAC in human HeLa cells nuclear extract
# Format: subcellular, Nucleus
parameter-measured: IC50

COc1ccccc1-n1c(=O)[nH]c2c(C(N)=O)nc(-c3ccc(C(C)C)cc3)nc21 : > 100 µM
CCOc1ccc(-c2nc(C(=O)NCCCCCCC(=O)NO)c3[nH]c(=O)n(-c4ccccc4OC)c3n2)cc1S(N)(=O)=O : 0.06 µM
CCOc1ccc(-c2nc(C(=O)NCCCCC/C(N)=N/O)c3[nH]c(=O)n(-c4ccccc4OC)c3n2)cc1 : > 100 µM
CCOc1ccc(-c2nc(C(=O)NCCCCCCC(=O)N(Cc3ccccn3)Cc3ccccn3)c3[nH]c(=O)n(-c4ccccc4OC)c3n2)cc1 : > 100 µM
CCOc1ccc(-c2nc(C(=O)NCCCCCCC(=O)NO)c3[nH]c(=O)n(-c4cccnc4OC)c3n2)cc1 : 0.03 µM

input: Item CCOc1ccc(-c2nc(C(=O)NCCCCCCNC(=O)CN)c3[nH]c(=O)n(-c4ccccc4OC)c3n2)cc1.Cl has what recorded IC50?
output: > 100 µM

input: Item CCOc1ccc(-c2nc(C(=O)NCCCCCCC(=O)NO)c3[nH]c(=O)n(-c4ccccc4OC)c3n2)cc1 has what recorded IC50?
output: 0.17 µM

input: Item CCOc1ccc(-c2nc(C(=O)NCCCCCCC(=O)NOC)c3[nH]c(=O)n(-c4ccccc4OC)c3n2)cc1 has what recorded IC50?
output: > 100 µM

###

# target-system: Histone deacetylase
# procedure-text: Inhibition of HDAC in human HeLa cells nuclear extract
# Assay type: subcellular, Nucleus
Below, each entry is listed alongside its reported IC50.

Would you please look over these solved cases?
CCOc1ccc(-c2nc(C(=O)NCCCCCNC(=O)CN)c3[nH]c(=O)n(-c4ccccc4OC)c3n2)cc1.Cl : > 100 µM
CCOc1ccc(-c2nc(C(=O)NCCCCCCC(=O)Nc3nccs3)c3[nH]c(=O)n(-c4ccccc4OC)c3n2)cc1 : > 100 µM

Below: the item to evaluate.
input: Item CCOc1ccc(-c2nc(C(=O)NCCCCCCCN(Cc3ccccn3)Cc3ccccn3)c3[nH]c(=O)n(-c4ccccc4OC)c3n2)cc1 has what recorded IC50?
output: > 100 µM
